# ASSAYED SYSTEM: UniProt:Q13547
# Sequence (Q13547 whole entry): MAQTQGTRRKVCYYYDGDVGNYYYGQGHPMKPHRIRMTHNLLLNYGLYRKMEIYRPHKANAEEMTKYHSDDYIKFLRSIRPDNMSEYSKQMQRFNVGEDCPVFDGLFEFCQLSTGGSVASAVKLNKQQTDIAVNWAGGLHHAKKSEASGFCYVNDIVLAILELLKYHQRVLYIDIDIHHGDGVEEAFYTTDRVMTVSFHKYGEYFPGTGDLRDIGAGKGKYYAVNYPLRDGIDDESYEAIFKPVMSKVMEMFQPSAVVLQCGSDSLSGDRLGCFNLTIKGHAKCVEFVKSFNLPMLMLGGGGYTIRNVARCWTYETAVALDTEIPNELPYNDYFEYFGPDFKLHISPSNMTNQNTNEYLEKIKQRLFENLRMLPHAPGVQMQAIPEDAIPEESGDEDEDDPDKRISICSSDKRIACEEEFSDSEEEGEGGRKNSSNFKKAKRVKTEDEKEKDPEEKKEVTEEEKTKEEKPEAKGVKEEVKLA
# EXPERIMENT: Inhibition of recombinant human HDAC1 after 30 mins by fluorescence assay
READOUT LABEL: pIC50
Interpret pIC50 as the negative base-10 log of the concentration measured in mol/L.

>  <INPUT SMILES>
COc1cc(OC)c2c(=O)[nH]c(-c3cc(C)c(OCCCCC(=O)NO)c(C)c3)nc2c1

>  <ASSAYED SYSTEM>
UniProt:Q13547

>  <pIC50>
7.49

$$$$

Turning to the following molecule.
# value lookup — system UniProt:Q13547, readout pIC50, item `COc1cc(OC)c2c(=O)[nH]c(-c3cc(C)c(OCc4ccc(/C=C/C(=O)NO)cc4)c(C)c3)nc2c1`
6.69

###

# ASSAYED SYSTEM: Bromodomain-containing protein 4 (Homo sapiens, UniProt O60885)
# EXPERIMENT: Inhibition of human BRD4 bromo domain 2 at 0.5 uM
READOUT LABEL: inhibition (%)
Provide the reading as a plain figure in %.

>  <INPUT SMILES>
COc1cc(OC)c2c(=O)[nH]c(-c3cc(C)c(OCCCCC(=O)NO)c(C)c3)nc2c1

>  <READOUT LABEL>
inhibition

>  <DATA VALUE>
73

$$$$
>  <INPUT SMILES>
COc1cc(OC)c2c(=O)[nH]c(-c3cc(C)c(OCCCCCC(=O)NO)c(C)c3)nc2c1

>  <READOUT LABEL>
inhibition

>  <DATA VALUE>
90

$$$$
>  <INPUT SMILES>
COc1cc(OC)c2c(=O)[nH]c(-c3cc(C)c(OCc4ccc(/C=C/C(=O)NO)cc4)c(C)c3)nc2c1

>  <READOUT LABEL>
inhibition

>  <DATA VALUE>
62

$$$$
>  <INPUT SMILES>
COc1cc(OC)c2c(=O)[nH]c(-c3cc(C)c(O)c(C)c3)nc2c1

>  <READOUT LABEL>
inhibition

>  <DATA VALUE>
87

$$$$

Turning to the following compound.
Need inhibition of `COc1cc(OC)c2c(=O)[nH]c(-c3cc(C)c(Oc4ccc(C(=O)NO)cn4)c(C)c3)nc2c1` , thanks.
51

###

# ASSAYED SYSTEM: Bromodomain-containing protein 4 (Homo sapiens)
# EXPERIMENT: Inhibition of human BRD4 bromo domain 1
pIC50: −log10 of the molar value.
A collection of compounds and their measured pIC50

>  <INPUT SMILES>
COc1cc(OC)c2c(=O)[nH]c(-c3cc(C)c(OCc4ccc(/C=C/C(=O)NO)cc4)c(C)c3)nc2c1

>  <pIC50>
< 5.30

$$$$

# value lookup — system Bromodomain-containing protein 4 (Homo sapiens), readout pIC50, item `COc1cc(OC)c2c(=O)[nH]c(-c3cc(C)c(OCCCCC(=O)NO)c(C)c3)nc2c1`
< 5.30

###

# ASSAYED SYSTEM: Bromodomain-containing protein 4 (Homo sapiens, UniProt O60885)
# EXPERIMENT: Inhibition of BRD4 (unknown origin)
READOUT LABEL: IC50

>  <COMPOUND>
C/C=C1\NC(=O)[C@H]2CSSCC/C=C/[C@H](CC(=O)N[C@H](C(C)C)C(=O)N2)OC(=O)[C@H](C(C)C)NC1=O [ROMIDEPSIN]

>  <IC50>
36 nM

$$$$
>  <COMPOUND>
Cc1[nH]c2ccccc2c1CCNCc1ccc(/C=C/C(=O)NO)cc1 [PANOBINOSTAT]

>  <IC50>
5 nM

$$$$

Turning to the following compound.
Need IC50 of O=C(CCCCCCC(=O)Nc1ccccc1)NO [VORINOSTAT] , thanks.
10 nM
